Reference source: PubChem BioAssay (EPA / NIEHS)

- Read-out: Human Leukocyte Antigen - DR isotype (HLADR), HLA-DRA (gene 3122)
- protocol summary: BSK_BE3C_HLADR: BioMAP Diversity Plus: BE3C Assay for Human Leukocyte Antigen - DR isotype (HLADR) Biomarker Activity (AID 2283032)
- cond: primary human bronchial epithelial cells; actives raise or lower the signal
Calls of active or inactive are those of the source. The calls were made as follows: active = hit-call score of the fitted dose curve at least 0.9, where 1 is the maximum; inactive = score below 0.9.
Outcome codes: active, inactive

>>> classification("CC(C)Nc1ccc(Nc2ccccc2)cc1")
"active"
>>> classification("Cc1c([N+](=O)[O-])cc2c(c1[N+](=O)[O-])C(C)(C)CC2(C)C")
"active"
>>> classification("Cc1ccc(N)cc1N")
"inactive"
>>> classification("CCCN(CCC)c1c([N+](=O)[O-])cc(C(C)C)cc1[N+](=O)[O-]")
"active"
>>> classification("COC(=O)C(F)(F)C(F)(F)OC(F)(C(F)(F)F)C(F)(F)OC(F)=C(F)F (stereo unspecified)")
"inactive"
>>> classification("CC(Cl)(Cl)C(=O)O")
"inactive"

* * *

- protocol summary: BSK_CASM3C_Proliferation: Cell Proliferation Assessment in the BioMAP Diversity Plus: CASM3C Assay (AID 2283047);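 also: sulforhodamine B total protein stain as relative cell number at 560 nm; sub-confluent cells exposed 48 h before staining; fitted both ways against DMSO so gain or loss of cell number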
- cond: primary human coronary artery smooth muscle cells
The source made the active and inactive calls. The calls were made as follows: active = hit-call score of the fitted dose curve at least 0.9, where 1 is the maximum; inactive = score below 0.9.
Outcome codes: t = active, f = inactive

>>> classification("O=C(O)C=CC(F)(C(F)(F)F)C(F)(F)F")
"f"
>>> classification("CC(C)(C)c1ccccc1OP(=O)(Oc1ccccc1)Oc1ccccc1")
"t"
>>> classification("Cc1ccc(O)cc1C")
"f"
>>> classification("CCOS(=O)(=O)OCC")
"f"

* * *

- target entity: Cytochrome P450 2C19 (Homo sapiens) (UniProt P33261)
- protocol summary: NVS_ADME_hCYP2C19: NovaScreen (NVS) CYP450-related Enzyme Activity (ADME) Assay for human CYP2C19 (AID 2283113)
Records with an inconclusive call do not appear. Calls of active or inactive are those of the source. Rule for the calls: active = hit-call score of the fitted dose curve at least 0.9, where 1 is the maximum; inconclusive = response in the unintended direction; inactive = score below 0.9.
Outcome codes: active, inactive

>>> classification("CC(Cc1ccc(OCC(=O)O)cc1)NCC(O)c1csc(C(F)(F)F)n1 (stereo not drawn)")
"inactive"
>>> classification("O=P(OCC(Br)CBr)(OCC(Br)CBr)OCC(Br)CBr (stereo not drawn)")
"active"
>>> classification("CO/N=C(/C(=O)OC)c1ccccc1COc1ccccc1C")
"active"
>>> classification("O=S1(=O)OCC2C(CO1)C1(Cl)C(Cl)=C(Cl)C2(Cl)C1(Cl)Cl (stereo not drawn)")
"active"
>>> classification("CCCCN(CCCC)SN(C)C(=O)Oc1cccc2c1OC(C)(C)C2")
"inactive"
>>> classification("CCNc1nc(Cl)nc(NC(C)(C)C)n1")
"active"
>>> classification("c1ccc2c(c1)Nc1ccccc1S2")
"active"
>>> classification("CCCCCCCc1ccc(O)cc1")
"inactive"

* * *

- Read-out: Secreted IgG (sIgG), gene 3500
- protocol summary: BSK_BT_sIgG: BioMAP Diversity Plus: BT Assay for Secreted IgG (sIgG) Biomarker Activity (AID 2284226)
- cond: primary human B cells with PBMC
Calls of active or inactive are those of the source. The calls were made as follows: active = hit-call score of the fitted dose curve at least 0.9, where 1 is the maximum; inactive = score below 0.9.
Outcome codes: active, inactive

>>> classification("O=c1ssc(Cl)c1Cl")
"active"
>>> classification("O=S1(=O)OCC2C(CO1)C1(Cl)C(Cl)=C(Cl)C2(Cl)C1(Cl)Cl (stereo not drawn)")
"active"
>>> classification("CCCCOCCOP(=O)(OCCOCCCC)OCCOCCCC")
"inactive"
>>> classification("CCCCC(CC)COC(=O)c1c(Br)c(Br)c(Br)c(Br)c1C(=O)OCC(CC)CCCC (stereo not drawn)")
"inactive"
>>> classification("CCOP(=S)(OCC)SCn1nnc2ccccc2c1=O")
"active"
>>> classification("CCOP(=S)(OCC)SCSc1ccc(Cl)cc1")
"active"
>>> classification("O=C(O)C(F)(F)C(F)(F)C(=O)O")
"inactive"
>>> classification("O=C(O)C(F)(OC(F)(F)C(F)(F)C(F)(F)F)C(F)(F)F (stereo not drawn)")
"inactive"
>>> classification("c1ccc2c(c1)sc1ccccc12")
"inactive"
>>> classification("CC(C)(C)c1ccccc1OP(=O)(Oc1ccccc1)Oc1ccccc1")
"active"
>>> classification("COP(=O)(O)OC")
"inactive"
>>> classification("OCC(F)(F)OC(F)(F)C(F)(F)OC(F)(F)C(F)(F)OC(F)(F)CO")
"active"
>>> classification("Nc1ccc([N+](=O)[O-])cc1Cl")
"inactive"
>>> classification("CC(Cl)CN(C)C (stereo not drawn)")
"inactive"
>>> classification("N#Cc1c(-c2ccc(Cl)cc2)[nH]c(C(F)(F)F)c1Br")
"active"
>>> classification("OCC(F)(F)OC(F)(F)C(F)(F)OC(F)(F)CO")
"inactive"
>>> classification("CCOP(=S)(NC(C)C)Oc1ccccc1C(=O)OC(C)C (stereo not drawn)")
"active"
>>> classification("CCOP(=S)(OCC)SCS(=O)(=O)CC")
"inactive"
>>> classification("CC(C)Nc1ccc(Nc2ccccc2)cc1")
"active"
>>> classification("C=CC(=O)OCC(CC)(COC(=O)C=C)COC(=O)C=C")
"active"
>>> classification("Cc1ccc2c(c1N)C(=O)c1ccccc1C2=O")
"inactive"
>>> classification("CCOP(=S)(S)OCC")
"active"
>>> classification("FC(F)(F)C(F)(C(F)(F)F)C(F)(F)C(F)(F)CC1CO1 (stereo not drawn)")
"inactive"
